target.under.test: T1, human FcRn extracellular domain (ECD) fused to a transmembrane domain and an intracellular citrine, with … (human)
T1 construct: also called human FcRn overexpressed on CHO cells; FcRn transfected CHO cells
procedure.summary: flow cytometry, CHO cells transiently expressing human FcRn ECD-TM-citrine and B2M, pH 6, AF647 detection antibody
The reader will find reported EC50 (read off the curve) values listed item by item below.

Previously resolved entries follow.
binder	result
cx12006 (bispecific antibody, anti-FcRn VHH linked to anti-albumin VHH) single polypeptide, format of FIG. 5(i): QVQLLESGGGKVQPGGSLRLSCAASGSIANVDLMAWHRQAPGKQREPIAVINDAGSTYYAESVKGRFTISRDNAKNTLYLQMNSLRAEDTAVYYCNTATWRGGERYADWGQGTLVTVEPGSGGGSQVQLLESGGGKVQPGGSLRLSCAASGFTFSTSGMVWVRQAPGKGLEWVSTISDDARITVYAESVKGRFTISRDNAKNTVYLQMNSLRAEDTAVYYCATYRAGSRIGSYEDYYRGQGTLVTVEPGG	~0.4 nM
cx12007 (B10a.v2.4 VHH x hz4A01v51.12 VHH) (bispecific antibody) EVQLLESGGGKVQPGGSLRLSCAASGSIANVDLMAWHRQAPGKQREPIAVINDAGSTYYAESVKGRFTISRDNAKNTLYLQMNSLRAEDTAVYYCNTATWRGGERYADWGQGTLVTVEPGSGGGSEVQLLESGGGKVQPGGSLRLSCAASGFTFSTSGMVWVRQAPGKGLEWVSTISDDARITVYAESVKGRFTISRDNAKNTVYLQMNSLRAEDTAVYYCATYRAGSRIGSYEDYYRGQGTLVTVEPGG	~0.4 nM
cx12003 (bispecific antibody, anti-FcRn VHH linked to anti-albumin VHH) single polypeptide, format of FIG. 5(i): QVQLLESGGGEVQPGGSLRLSCAASGSIANVDLMAWHRQAPGKQREPIAVINDAGSTYYAESVKGRFTISRDNAKNTLYLQMNSLRAEDTAVYYCNTATWRGGERYADWGQGTLVTVEPGSGGGSQVQLLESGGGEVQPGGSLRLSCAASGFTFSTSGMVWVRQAPGKGLEWVSTISDDARITVYAESVKGRFTISRDNAKNTVYLQMNSLRAEDTAVYYCATYRAGSRIGSYEDYYRGQGTLVTVEPGG	~0.5 nM

--- query ---
**Q:** Report EC50 (read off the curve) for cx11558 (B10a.v2.1 VHH x hz4A01v51 VHH) (bispecific antibody) EVQLLESGGGEVQPGGSLRLSCAASGSIANVDLMAWHRQAPGKQREPIAVINDAGSTYYAESVKGRFTISRDNAKNTLYLQMNSLRAEDTAVYYCNTATWRGGERYADWGQGTLVTVKPGSGGGSEVQLVESGGGEVQPGGSLRLSCAASGFTFSTSGMVWVRQAPGKGLEWVSTISDDARITVYAESVKGRFTISRDNAKNTVYLQMNSLRAEDTAVYYCATYRAGSRIGSYEDYYRGQGTLVTVKPGG
**A:** ~0.4 nM
